# Stereoselectivity Vmax annotations
- targetEntity: OCT3 (Homo sapiens, UniProt O75751)
- Sequence (O75751 whole entry): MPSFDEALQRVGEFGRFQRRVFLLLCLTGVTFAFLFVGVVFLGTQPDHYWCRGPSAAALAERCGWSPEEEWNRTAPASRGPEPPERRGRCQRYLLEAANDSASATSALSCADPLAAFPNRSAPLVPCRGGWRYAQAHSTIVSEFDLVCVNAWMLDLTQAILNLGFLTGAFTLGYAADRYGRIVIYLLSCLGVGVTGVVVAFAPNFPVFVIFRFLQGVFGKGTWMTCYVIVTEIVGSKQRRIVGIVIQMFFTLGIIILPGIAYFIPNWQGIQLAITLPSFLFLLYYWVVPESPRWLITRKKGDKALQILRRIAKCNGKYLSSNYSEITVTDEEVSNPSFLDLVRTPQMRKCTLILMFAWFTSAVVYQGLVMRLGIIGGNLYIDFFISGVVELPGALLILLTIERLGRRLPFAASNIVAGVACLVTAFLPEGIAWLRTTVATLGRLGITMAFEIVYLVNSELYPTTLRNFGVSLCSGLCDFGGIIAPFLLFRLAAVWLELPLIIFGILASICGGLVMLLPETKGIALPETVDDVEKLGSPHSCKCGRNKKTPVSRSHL
- procedureDetails: Stereoselective uptake into OCT3-overexpressing HEK293 cells;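 note: intracellular accumulation in HEK293 cells measured by chiral HPLC-MS/MS after a 2 min substrate exposure at 37 °C, uptake normalized to total protein (bicinchoninic acid assay)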
- measurementSetup: OCT3; ratio between enantiomers, given as for (R) or for 1

# count of solved cases: 4
query: Give Stereoselectivity Vmax only, for C[C@@H]1NCCc2cc(O)c(O)cc21 [Salsolinol-1, Salsolinol] , using OCT3 (Homo sapiens, UniProt O75751) data.
result: 1.01 fold

query: Enter measured Stereoselectivity Vmax, system OCT3 (Homo sapiens, UniProt O75751), for the molecule shown: CNC[C@@H](O)c1ccc(O)cc1 [(S)-Synephrine]
result: 1.05 fold

query: With OCT3 (Homo sapiens, UniProt O75751) as the test system, provide measured Stereoselectivity Vmax for this molecule: NC[C@H](O)c1ccc(O)c(O)c1 [(R)-Norepinephrine]
result: 1.01-fold for (R)

query: Under OCT3 (Homo sapiens, UniProt O75751): report Stereoselectivity Vmax of COc1cc(C(O)CN)ccc1O (single isomer, unassigned) [Normetanephrine-2, Normetanephrine] .
result: 1.09 fold

Further cases:
query: Send back OCT3 (Homo sapiens, UniProt O75751) Stereoselectivity Vmax of C[C@@H]1NCCc2cc(O)c(O)cc21 [Salsolinol-2, Salsolinol] only.
result: 1.01 fold

query: Under OCT3 (Homo sapiens, UniProt O75751), report Stereoselectivity Vmax for COc1cc(C(O)CN)ccc1O (single isomer, unassigned) [Normetanephrine-1, Normetanephrine]
result: 1.09 fold

query: Specify the recorded Stereoselectivity Vmax for CNC[C@H](O)c1ccc(O)cc1 [(R)-Synephrine] , system: OCT3 (Homo sapiens, UniProt O75751).
result: 1.05 fold

query: Tell me its Stereoselectivity Vmax on OCT3 (Homo sapiens, UniProt O75751): CNC[C@@H](O)c1cccc(O)c1 [(S)-Phenylephrine]
result: 3.33 fold

query: Provide Stereoselectivity Vmax, system OCT3 (Homo sapiens, UniProt O75751), entry NCC(O)c1cccc(O)c1 (single isomer, unassigned) [Norphenylephrine-1, Norphenylephrine]
result: 3.88 fold

query: Jot down Stereoselectivity Vmax (OCT3 (Homo sapiens, UniProt O75751)) of CNC[C@H](O)c1cccc(O)c1 [Phenylephrine] .
result: 3.3 fold

query: For OCT3 (Homo sapiens, UniProt O75751), give Stereoselectivity Vmax of the listed molecule: NCC(O)c1cccc(O)c1 (single isomer, unassigned) [Norphenylephrine-2, Norphenylephrine]
result: 3.88 fold

query: Recall the reported Stereoselectivity Vmax of NC[C@@H](O)c1ccc(O)c(O)c1 [(S)-Norepinephrine] on OCT3 (Homo sapiens, UniProt O75751) and write it down.
result: 1.01-fold for (R)

query: Give Stereoselectivity Vmax for this entry on OCT3 (Homo sapiens, UniProt O75751): CNCC(O)c1ccc(O)c(OC)c1 (single isomer, unassigned) [Metanephrine-1, Metanephrine]
result: 1.19 fold

query: Enter Stereoselectivity Vmax (test system OCT3 (Homo sapiens, UniProt O75751)) for NCC(O)c1cccc(O)c1 (stereo not drawn) [Norphenylephrine]
result: 3.9 fold

query: State Stereoselectivity Vmax on OCT3 (Homo sapiens, UniProt O75751). Entry: NC[C@H](O)c1ccccc1 [(R)-Bisnorephedrine]
result: 1.13 fold

Measured values drawn from paper PMC9599461 for this set.
